Form field: IC50 (one value per entry).
- target-or-test-system: T1, human OT7T175 (metastin receptor) (human, UniProt Q969F8 1-398)
- T1 construct: expressed on CHO cells (hOT7T175-expressed CHO cells; hOT7T175/CHO); also called hOT7T175; h0T7T175
- T1 sequence (Q969F8 whole entry L364H): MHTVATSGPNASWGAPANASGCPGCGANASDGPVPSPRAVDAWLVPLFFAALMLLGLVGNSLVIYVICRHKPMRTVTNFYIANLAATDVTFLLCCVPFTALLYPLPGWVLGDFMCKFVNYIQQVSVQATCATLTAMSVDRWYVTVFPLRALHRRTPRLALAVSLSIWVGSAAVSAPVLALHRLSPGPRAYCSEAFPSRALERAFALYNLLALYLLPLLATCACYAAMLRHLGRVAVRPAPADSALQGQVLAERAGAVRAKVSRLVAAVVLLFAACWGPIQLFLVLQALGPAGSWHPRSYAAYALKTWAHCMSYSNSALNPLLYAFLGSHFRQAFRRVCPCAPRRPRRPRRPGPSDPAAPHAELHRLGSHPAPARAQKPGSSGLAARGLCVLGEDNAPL
- measurement-description: FMAT competition with Cy-5-labeled metastin (40-54), hOT7T175-expressed CHO cells
Square brackets hold non-standard residues; d marks the D form. Ends that are not written are not given here. * marks the point of attachment. Arg(Me) = CNC(=N)NCCC[C@H](N)C(=O)O; Fmoc = O=C(OCC1c2ccccc2-c2ccccc21)*

binder	IC50 [nM]
Fmoc-WNSFGLRF-NH2 (SMILES CC(C)C[C@H](NC(=O)CNC(=O)[C@H](Cc1ccccc1)NC(=O)[C@H](CO)NC(=O)[C@H](CC(N)=O)NC(=O)[C@H](Cc1c[nH]c2ccccc12)NC(=O)OCC1c2ccccc2-c2ccccc21)C(=O)N[C@@H](CCCNC(=N)N)C(=O)N[C@@H](Cc1ccccc1)C(N)=O) [Compound No. 54: des(1-2)-Fmoc-MS10]	450
[dY]NWNSFGL[Arg(Me)]F-NH2 (also: Gly7-Leu8 bond reduced (CH2NH)) [Compound No. 307: [7Ψ8,CH2NH,D-Tyr1,Arg(Me)9]MS10]	64
